testTarget: T1, EsCas13d, nuclease-dead (Eubacterium siraeum, UniProt B0MS50, R295A;H300A;R849A;H854A)
T1 sequence: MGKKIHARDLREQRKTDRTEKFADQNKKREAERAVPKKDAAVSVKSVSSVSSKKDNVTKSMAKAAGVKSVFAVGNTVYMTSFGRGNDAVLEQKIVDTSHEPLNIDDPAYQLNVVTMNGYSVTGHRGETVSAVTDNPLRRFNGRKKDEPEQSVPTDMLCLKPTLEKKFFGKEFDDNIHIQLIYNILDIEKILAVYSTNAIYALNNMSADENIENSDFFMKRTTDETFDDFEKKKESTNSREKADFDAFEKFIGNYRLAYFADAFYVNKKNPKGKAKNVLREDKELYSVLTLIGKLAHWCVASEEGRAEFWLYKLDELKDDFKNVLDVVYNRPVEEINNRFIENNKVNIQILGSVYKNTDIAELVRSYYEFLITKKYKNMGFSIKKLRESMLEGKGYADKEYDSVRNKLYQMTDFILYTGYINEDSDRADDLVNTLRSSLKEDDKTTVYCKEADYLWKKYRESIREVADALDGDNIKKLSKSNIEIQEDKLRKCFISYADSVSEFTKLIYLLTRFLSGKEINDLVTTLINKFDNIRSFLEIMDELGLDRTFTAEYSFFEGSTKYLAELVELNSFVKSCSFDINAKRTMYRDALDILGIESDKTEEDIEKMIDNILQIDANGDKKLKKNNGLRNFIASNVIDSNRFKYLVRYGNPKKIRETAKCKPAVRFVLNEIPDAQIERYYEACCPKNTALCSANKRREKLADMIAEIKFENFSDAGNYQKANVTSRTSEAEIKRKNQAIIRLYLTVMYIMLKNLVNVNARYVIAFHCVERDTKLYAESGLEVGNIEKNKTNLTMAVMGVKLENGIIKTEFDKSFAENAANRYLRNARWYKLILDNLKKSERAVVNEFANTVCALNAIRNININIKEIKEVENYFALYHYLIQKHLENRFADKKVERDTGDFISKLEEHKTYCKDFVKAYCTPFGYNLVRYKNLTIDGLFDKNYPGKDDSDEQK
measurementNotes: crRNA (strand 1, pre-loaded); Mg2+; 40 mM Tris-HCl pH 7.5, 150 mM NaCl, 6 mM MgCl2, 1 mM DTT, 0.1% Tween-20, 0.2 mg/ml BSA; 25 C; 10 min per concentration, then washed
assayContext: tags: His6-TwinStrep-SUMO cleaved; N-terminal SNAP kept (SNAP-Surface 488); label: 3' end held by stalled T7 RNA polymerase
Criterion: Kd strictly less than 7 nM. Met: satisfied. Not met: not satisfied.

>  <binder>
target 1 A9U,U11A (mixed) RNA 1: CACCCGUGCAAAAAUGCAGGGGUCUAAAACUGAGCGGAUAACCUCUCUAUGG RNA 2: GGGAAUGGAUCCACAUCUACGAAUUCGUACCAUAGAGAGGAUUUCCGCUCACCGAGAUCGGAAGAGCACACGU

>  <assignedCategory>
not satisfied

$$$$
>  <binder>
target 1 C2U,A16G (mixed) RNA 1: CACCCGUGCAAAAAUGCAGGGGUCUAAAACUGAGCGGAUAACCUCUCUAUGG RNA 2: GGGAAUGGAUCCACAUCUACGAAUUCGUACCAUAGGGAGGUUAUCCGCUUACCGAGAUCGGAAGAGCACACGU

>  <assignedCategory>
not satisfied

$$$$
>  <binder>
target 3 insC 3' of 8,insC 3' of 3 (mixed) RNA 1: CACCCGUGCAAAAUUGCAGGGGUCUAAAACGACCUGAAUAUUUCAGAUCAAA RNA 2: GGGAAUGGAUCCACAUCUACGAAUUCGUUUUUGAUCUGAAAUAUCUCAGGCUCUGCAGAUCGGAAGAGCACACGU

>  <assignedCategory>
not satisfied

$$$$
>  <binder>
target 1 C6A (mixed) RNA 1: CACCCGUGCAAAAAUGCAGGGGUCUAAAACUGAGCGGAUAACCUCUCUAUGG RNA 2: GGGAAUGGAUCCACAUCUACGAAUUCGUACCAUAGAGAGGUUAUCAGCUCACCGAGAUCGGAAGAGCACACGU

>  <assignedCategory>
satisfied

$$$$
>  <binder>
target 3 insU 3' of 16 (mixed) RNA 1: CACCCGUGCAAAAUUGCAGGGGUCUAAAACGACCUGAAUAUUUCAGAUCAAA RNA 2: GGGAAUGGAUCCACAUCUACGAAUUCGUUUUUGAUCUUGAAAUAUUCAGGUCUGCAGAUCGGAAGAGCACACGU

>  <assignedCategory>
not satisfied

$$$$
>  <binder>
target 1 insU 3' of 21,insA 3' of 5 (mixed) RNA 1: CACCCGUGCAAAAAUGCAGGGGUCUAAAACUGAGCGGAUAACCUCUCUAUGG RNA 2: GGGAAUGGAUCCACAUCUACGAAUUCGUACCUAUAGAGAGGUUAUCCGACUCACCGAGAUCGGAAGAGCACACGU

>  <assignedCategory>
not satisfied

$$$$
